- assayedTarget: CXCR4 (Homo sapiens, UniProt P61073)
- Sequence (P61073 whole entry): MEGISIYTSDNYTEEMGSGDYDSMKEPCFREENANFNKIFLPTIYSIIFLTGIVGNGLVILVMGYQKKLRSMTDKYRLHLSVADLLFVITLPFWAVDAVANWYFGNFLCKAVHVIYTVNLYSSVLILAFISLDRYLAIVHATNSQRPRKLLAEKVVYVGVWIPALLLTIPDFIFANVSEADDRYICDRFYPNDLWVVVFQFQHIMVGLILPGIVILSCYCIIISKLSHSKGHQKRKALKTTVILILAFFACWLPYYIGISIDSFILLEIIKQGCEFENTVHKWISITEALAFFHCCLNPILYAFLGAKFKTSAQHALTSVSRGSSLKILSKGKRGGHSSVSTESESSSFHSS
- assay: Intracellular CXCL-12-induced calcium mobilization assay (FLIPR), U87.CXCR4 cells
- Assay type: cell-based
- Set-up: expressed in transfected cells; host or cells: U87 (U87.CXCR4)
- appliedConditions: CXCL-12 25-50 ng/ml, read-out: IC50 CXCL-12 Ca2+ flux U87.CXCR4+
readoutName: IC50

The cases that follow already have their IC50 on record.
molecule=Cc1cc(-c2ncnc3[nH]c(S(=O)(=O)NCCCN4[C@@H](c5ncccc5C)CCC[C@H]4c4ncccc4C)cc23)ccc1CNC(=O)c1ccc(C(C)(C)C)cc1 readoutname=IC50 endpointvalue="> 2500 nM"
molecule=COC1CN(C(=O)NCc2ccc(-c3ccnc(Nc4cnn(CCN5[C@@H](c6ncccc6C)CCC[C@H]5c5ncccc5C)c4)n3)cc2C)C1 readoutname=IC50 endpointvalue="> 2500 nM"
molecule=Cc1cccnc1[C@H]1CCC[C@@H](c2ncccc2C)N1CCN1CCN(C(=O)c2ccc(-c3cc4c(-c5cccc(NC(=O)c6ccccc6)c5C)ncnc4[nH]3)cc2)CC1 readoutname=IC50 endpointvalue="1 to 100 nM"
molecule=Cc1cccnc1[C@H]1CCC[C@@H](c2ncccc2C)N1CCCNC(=O)[C@@H]1CC[C@@H](Nc2ncnc3[nH]cc(C(=O)c4ccc(Oc5ccccc5)cc4Cl)c23)CO1 readoutname=IC50 endpointvalue="> 2500 nM"
molecule=Cc1cccnc1[C@H]1CCC[C@@H](c2ncccc2C)N1CCCN1CCN(C(=O)c2ccc(-c3cc4c(-c5cccc(NC(=O)c6ccccc6)c5C)ncnc4[nH]3)cc2)CC1 readoutname=IC50 endpointvalue="1 to 100 nM"

Request: Give IC50 for Cc1cc(-c2ccnc(Nc3cnn(CCN4CCCCC4c4ncccc4C)c3)n2)ccc1CNC(=O)N1CC(OC(C)C)C1 (centres unmarked)
Result: > 2500 nM

Request: Consider the molecule Cc1cccnc1[C@H]1CCC[C@@H](c2ncccc2C)N1CCCn1cc(-c2ccc(Oc3ccccc3)cc2)c2c(N)ncnc21 and give its recorded IC50.
Result: > 2500 nM

Request: Complete the entry with IC50 for Cc1cc(-c2ncnc3[nH]c(C(=O)NCCCN4[C@@H](c5ncccc5C)CCC[C@H]4c4ncccc4C)cc23)ccc1CNC(=O)c1ccc(C(C)C)cc1
Result: 100 to 1000 nM

Request: Respond only with IC50 recorded for Cc1cccnc1[C@H]1CCC[C@@H](c2ncccc2C)N1CCCCNC(=O)c1cc2c(-c3ccc(CNC(=O)c4ccc(C(C)(C)C)cc4)cc3)ncnc2[nH]1
Result: > 2500 nM

Request: Give recorded IC50. Cc1cccnc1[C@H]1CCC[C@@H](c2ncccc2C)N1CCNC1CN(C(=O)c2ccc(-c3cc4c(-c5cccc(NC(=O)c6cccc(C(C)C)c6)c5C)ncnc4[nH]3)cc2)C1
Result: 100 to 1000 nM

Request: For the molecule Cc1cc(-c2ncnc3[nH]c(S(=O)(=O)NCCN4[C@@H](c5ncccc5C)CCC[C@H]4c4ncccc4C)cc23)ccc1CNC(=O)c1ccc(C(C)(C)C)cc1 , give its measured IC50 value.
Result: > 2500 nM

---

- assayedTarget: ERBB2 (Homo sapiens, UniProt P04626)
- Construct: purchased Reaction Biology Europe GmbH
- Sequence (P04626 23-1255): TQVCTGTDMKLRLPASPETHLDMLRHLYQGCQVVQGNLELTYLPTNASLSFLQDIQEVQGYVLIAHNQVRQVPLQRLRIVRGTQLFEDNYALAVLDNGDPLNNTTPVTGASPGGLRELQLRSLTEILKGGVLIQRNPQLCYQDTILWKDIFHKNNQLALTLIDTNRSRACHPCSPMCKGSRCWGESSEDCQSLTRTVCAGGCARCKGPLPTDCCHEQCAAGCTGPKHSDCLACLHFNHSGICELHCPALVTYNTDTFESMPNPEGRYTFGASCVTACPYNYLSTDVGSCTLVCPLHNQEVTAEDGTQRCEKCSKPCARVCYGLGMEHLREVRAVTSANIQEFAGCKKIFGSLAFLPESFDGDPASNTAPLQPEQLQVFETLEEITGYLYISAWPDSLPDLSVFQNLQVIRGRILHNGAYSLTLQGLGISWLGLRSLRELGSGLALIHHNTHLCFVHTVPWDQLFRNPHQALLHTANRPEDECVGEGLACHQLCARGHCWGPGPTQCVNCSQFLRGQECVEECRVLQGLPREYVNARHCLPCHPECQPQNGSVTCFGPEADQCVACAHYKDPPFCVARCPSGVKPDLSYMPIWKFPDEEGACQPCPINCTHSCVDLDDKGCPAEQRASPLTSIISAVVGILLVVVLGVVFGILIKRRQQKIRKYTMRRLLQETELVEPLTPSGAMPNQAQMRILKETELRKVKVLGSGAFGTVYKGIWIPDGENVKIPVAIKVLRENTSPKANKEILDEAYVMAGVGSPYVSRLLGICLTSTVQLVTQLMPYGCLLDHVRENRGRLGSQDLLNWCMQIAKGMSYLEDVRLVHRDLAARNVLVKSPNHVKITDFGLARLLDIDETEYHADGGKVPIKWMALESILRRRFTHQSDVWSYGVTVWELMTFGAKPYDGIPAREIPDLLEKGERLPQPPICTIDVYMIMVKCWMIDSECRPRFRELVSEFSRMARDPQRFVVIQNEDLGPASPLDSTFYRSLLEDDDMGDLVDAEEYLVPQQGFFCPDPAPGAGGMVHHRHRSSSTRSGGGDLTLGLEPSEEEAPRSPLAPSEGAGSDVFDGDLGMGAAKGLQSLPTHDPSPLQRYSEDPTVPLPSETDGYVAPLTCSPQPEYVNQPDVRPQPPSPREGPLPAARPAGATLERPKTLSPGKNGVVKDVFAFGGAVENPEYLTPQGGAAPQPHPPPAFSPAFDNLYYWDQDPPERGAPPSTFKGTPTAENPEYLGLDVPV
- assay: PanQinase kinase panel: ERBB2
- Format: biochemical
- appliedConditions: read-out: INHIBITORY EFFECT @ 1 uM: ERBB2
# maps each entry to its inhibition at 1 µM

structure=C=CC(=O)N1CCC([C@@H]2CCNc3c(C(N)=O)c(-c4ccc(Oc5ccccc5)cc4)nn32)CC1 assayedtarget="ERBB2 (Homo sapiens, UniProt P04626)" endpointvalue="< 50%"
structure=O=C(c1ccc(Oc2ccccc2)cc1Cl)c1c[nH]c2ncnc(N[C@@H]3CC[C@@H](CO)OC3)c12 assayedtarget="ERBB2 (Homo sapiens, UniProt P04626)" endpointvalue="70 to 89%"

Request: State its inhibition at 1 µM for this compound: Cc1cccnc1[C@H]1CCC[C@@H](c2ncccc2C)N1CCN1CCN(C(=O)c2ccc(-c3cc4c(-c5cccc(NC(=O)c6ccccc6)c5C)ncnc4[nH]3)cc2)CC1
Result: < 50%

Request: Give the measured inhibition at 1 µM for COc1ccc(F)cc1C(=O)NCc1ccc(-c2nn([C@@H](C)C(F)(F)F)c(N)c2C(N)=O)cc1
Result: 50 to 69%
